Attribution: PubChem BioAssay AID1963849

Tested on: 299254-011-R-J1-PDC complex spheroid viability;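 also: spheroids exposed to drugs for one week before measurement; percent viability relative to DMSO vehicle control taken as 100%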
Assay: Anticancer human tumor 299254-011-R-J1-PDC patient-derived melanoma cell line growth inhibition [POLQ]
Conditions: second compound 0.0316 µM; first compound 0.316 µM; stronger effect = lower value
Method: Multicellular complex tumor spheroid response to Polymerase (POL) inhibitors (novobiocin, ART-558, RP6685) in combination with a variety of drugs and investigational agents in selected tumor cell lines The POL inhibitors (novobiocin, ART-558, and RP6685) were evaluated both individually and in combination with standard of care and investigational anticancer small molecules within a complex spheroid model of solid tumors. . […]
Listed here are molecules together with their documented viability, T/C.
Write it as a number; the unit % goes unstated.

[[record]]
molecule = "CCc1c2c(nc3ccc(O)cc13)-c1cc3c(c(=O)n1C2)COC(=O)[C@]3(O)CC + Nc1ccc(C#CCN(C(=O)Cc2ncc(C(F)(F)F)cc2C(F)(F)F)c2ccc(F)cc2)nn1"
measuredquantity = "viability, T/C"
outputunit = "%"
reportedresult = 76.8


So, CC1COCCN1c1cc(-c2ccnn2C)c2ccnc(-c3ccn[nH]3)c2n1 (stereo not given) + Cc1cccc(N(C)C(=O)C2C(O)CCN2c2nc(C)cc(C(F)(F)F)c2C#N)c1 ? Its viability, T/C was 42.1

So, CCc1cc2c(N3CCc4c(cc(Cn5ccnc5)cc4-c4cn(C)nc4C(F)(F)F)C3=O)cc(C)nc2c(OC)n1 + COC1C(OC(N)=O)C(O)C(Oc2ccc3c(O)c(NC(=O)c4ccc(O)c(CC=C(C)C)c4)c(=O)oc3c2C)OC1(C)C ? Its viability, T/C was 109

So, C=CC(=O)N1CCN(c2nc(=O)n(-c3c(C)ccnc3C(C)C)c3nc(-c4c(O)cccc4F)c(F)cc23)C(C)C1 (stereo not given) + Nc1ccc(C#CCN(C(=O)Cc2ncc(C(F)(F)F)cc2C(F)(F)F)c2ccc(F)cc2)nn1 ? Its viability, T/C was 80

So, COc1cc(C2c3cc4c(cc3C(OC3OC5COC(C)OC5C(O)C3O)C3COC(=O)C23)OCO4)cc(OC)c1O (stereo not given) + Nc1ccc(C#CCN(C(=O)Cc2ncc(C(F)(F)F)cc2C(F)(F)F)c2ccc(F)cc2)nn1 ? Its viability, T/C was 87.5

So, COc1cccc2c1C(=O)c1c(O)c3c(c(O)c1C2=O)CC(O)(C(=O)CO)CC3OC1CC(N)C(O)C(C)O1 (stereo not given) + Nc1ccc(C#CCN(C(=O)Cc2ncc(C(F)(F)F)cc2C(F)(F)F)c2ccc(F)cc2)nn1 ? Its viability, T/C was 83.1

So, CCc1cc2c(N3CCc4c(cc(Cn5ccnc5)cc4-c4cn(C)nc4C(F)(F)F)C3=O)cc(C)nc2c(OC)n1 + Nc1ccc(C#CCN(C(=O)Cc2ncc(C(F)(F)F)cc2C(F)(F)F)c2ccc(F)cc2)nn1 ? Its viability, T/C was 107
